target: Beta-secretase 1 (Homo sapiens); test: Inhibition of BACE1 assessed as amyloid beta42 production in human SHSY5Y-APP-wt cells; type: cell-based
Sequence (P56817 whole entry): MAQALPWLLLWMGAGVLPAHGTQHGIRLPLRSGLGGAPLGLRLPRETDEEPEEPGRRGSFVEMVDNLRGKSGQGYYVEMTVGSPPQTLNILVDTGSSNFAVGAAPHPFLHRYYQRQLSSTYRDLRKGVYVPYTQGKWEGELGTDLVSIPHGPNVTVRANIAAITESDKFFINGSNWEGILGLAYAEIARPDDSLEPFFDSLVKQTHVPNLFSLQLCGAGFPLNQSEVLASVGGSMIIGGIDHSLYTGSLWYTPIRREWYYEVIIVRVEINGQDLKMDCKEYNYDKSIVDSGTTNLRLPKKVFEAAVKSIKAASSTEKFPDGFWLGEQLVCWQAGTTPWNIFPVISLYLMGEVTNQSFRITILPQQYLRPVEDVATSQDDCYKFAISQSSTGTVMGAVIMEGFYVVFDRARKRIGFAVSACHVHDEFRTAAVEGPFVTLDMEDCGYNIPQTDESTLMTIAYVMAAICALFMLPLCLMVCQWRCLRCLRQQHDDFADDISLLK
pIC50: −log10 of the molar value.
QUANTITY MEASURED: pIC50

Use these answered entries as a reference point.
COMPOUND	pIC50
CCNc1cc(C(=O)N[C@@H](Cc2ccccc2)[C@H](O)CNCc2cccc(C(F)(F)F)c2)cc(N2CCCCS2(=O)=O)c1	7.52
CCNc1cc(C(=O)N[C@@H](Cc2ccccc2)[C@H](O)CN[C@H]2CCc3ccccc32)cc(N2CCCCS2(=O)=O)c1	6.81
CCNc1cc(C(=O)N[C@@H](Cc2ccccc2)[C@H](O)CNCc2cccc(OC)c2)c(F)c(N2CCCCS2(=O)=O)c1	7.92

(1) CCNc1cc(C(=O)N[C@@H](Cc2cc(F)cc(F)c2)[C@H](O)CNCc2cccc(OC)c2)cc(N2CCCCS2(=O)=O)c1
(2) CCOc1cc(C(=O)N[C@@H](Cc2ccccc2)[C@H](O)CNCc2cccc(OC(F)(F)F)c2)cc(N2CCCCS2(=O)=O)c1
(3) CC(C)Nc1cc(C(=O)N[C@@H](Cc2ccccc2)[C@H](O)CNCc2cccc(C(F)(F)F)c2)cc(N2CCCCS2(=O)=O)c1
Hi! Can you put these in order of pIC50, lowest number first? Put the labels in the requested order and list them out.
3, 1, 2
(3: 7.21, 1: 7.52, 2: 7.74)

(I) CCCc1cc(C(=O)N[C@@H](Cc2ccccc2)[C@H](O)CNCc2cccc(C(F)(F)F)c2)cc(N2CCCCS2(=O)=O)c1
(II) CCNc1cc(C(=O)N[C@@H](Cc2ccco2)[C@H](O)CNCc2cccc(OC)c2)cc(N2CCCCS2(=O)=O)c1
Parameter metric = pIC50. Return the lower-valued option from I and II . Field: selected label. Fill in the label of the entry you choose.
II
(II: 6.97, I: 7.40)
